Let's go through some recorded log10 IC50 values for Inosine-5'-monophosphate dehydrogenase (Streptococcus pyogenes, UniProt P0C0H6) together.
In plain terms, each number is the log10 of measured IC50 in µM.

Please review the following examples before continuing.
Query: Sample `COc1ccc(NC(=O)Cn2c(-c3cscn3)nc3ccccc32)cc1` — what was its log10 IC50?
Reply: 1.85

Query: Would you kindly repeat that for `COc1ccc(NC(=O)Cc2nn(C)c(=O)c3ccccc23)cc1` ?
Reply: 1.69

Query: Lookup `COC(=O)c1c(C)c(=O)[nH]c2ccccc12`
Reply: 1.18

Query: // query: `Nc1ccc(C(=O)OCCCc2nc3cc4ccccc4cc3[nH]2)cc1`
Reply: -0.07

Now, please, on to the next compound.
Query: Give the measured log10 IC50 of `O=C(Cn1c(-c2ccccn2)nc2ccccc21)Nc1ccc2ccccc2c1` .
Reply: -2.27

---

Target: Inosine-5'-monophosphate dehydrogenase (Borreliella burgdorferi (strain ATCC 35210 / DSM 4680 / CIP 102532 / B31))
Sequence (P49058 whole entry): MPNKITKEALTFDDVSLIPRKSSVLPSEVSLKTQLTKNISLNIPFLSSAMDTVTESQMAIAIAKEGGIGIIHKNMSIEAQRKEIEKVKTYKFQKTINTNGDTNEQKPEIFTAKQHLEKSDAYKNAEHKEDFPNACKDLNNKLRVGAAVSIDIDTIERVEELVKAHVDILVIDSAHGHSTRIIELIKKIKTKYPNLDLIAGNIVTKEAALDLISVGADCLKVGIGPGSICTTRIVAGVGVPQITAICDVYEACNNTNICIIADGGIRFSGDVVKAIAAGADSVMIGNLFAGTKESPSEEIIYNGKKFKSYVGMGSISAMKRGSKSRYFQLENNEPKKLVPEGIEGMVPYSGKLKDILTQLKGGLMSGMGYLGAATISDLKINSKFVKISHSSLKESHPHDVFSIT
Test: Inhibition Assay
Conditions: pH 8; 25 °C
For each record, write down the corresponding pIC50.
Give bare numbers, as −log10 of the molar value.

Query: I would be grateful if you could share the reported pIC50 for `Nc1ccc(C(=O)OCCCc2nc3cc4ccccc4cc3[nH]2)cc1` .
Reply: 6.05

Query: For `COc1ccc(NC(=O)Cc2nn(C)c(=O)c3ccccc23)cc1` then?
Reply: 5.77

Here is another molecule to look at.
Query: // returns reported pIC50 for input `CCn1c(SCC(=O)Nc2ccc(OC)cc2)nc2ccsc2c1=O`
Reply: 6.10
